- Test system: tubulin polymerization in HCT-116 cells
- run-description: Cellular tubulin polymerization assay (pellet/supernatant a-tubulin, HCT-116 cells)
- Assay type: cell-based
- condition-set: Table 3, HCT-116 cells; read-out: Tubulin Cellular
The entries below come with measured IC50 values attached.

Inquiry: Please report the measured IC50 for "CNC(=O)c1cc(-c2cc(-c3cc(NC(=O)c4cc(C(F)(F)F)cnn4)ccc3C)ccn2)ccn1" tested on tubulin polymerization in HCT-116 cells.
Reply text: 100 to 500 nM

***
Inquiry: Fill in IC50 for "CNC(=O)c1cc(-c2cc(-c3cc(NC(=O)c4cc(C5CC5)cnn4)ccc3C)cc(NCCO)n2)ccn1" tested with tubulin polymerization in HCT-116 cells.
Reply text: 100 to 500 nM

Inquiry: Specify IC50 for "CNC(=O)c1cc(-c2cc(-c3cc(NC(=O)c4cc(C(F)(F)F)cnn4)ccc3C)cc(C)n2)ccn1" , system tubulin polymerization in HCT-116 cells.
Reply text: 100 to 500 nM

Inquiry: Report IC50 on tubulin polymerization in HCT-116 cells for this entry: "CNC(=O)c1cc(-c2cc(-c3cc(NC(=O)c4cc(C(F)(F)F)cnn4)ccc3C)cc(NCCO)n2)ccn1"
Reply text: < 100 nM

Inquiry: State measured IC50 of the compound "CNC(=O)c1cc(-c2cc(-c3cc(NC(=O)c4cc(C5CC5)cnn4)ccc3C)ccn2)ccn1" with tubulin polymerization in HCT-116 cells.
Reply text: 100 to 500 nM

----------
Measured pIC50, listed per entry for reference.
- tgt: B-Raf kinase (Homo sapiens, UniProt P15056)
- Construct: purchased Sigma
- Sequence (P15056 416-766): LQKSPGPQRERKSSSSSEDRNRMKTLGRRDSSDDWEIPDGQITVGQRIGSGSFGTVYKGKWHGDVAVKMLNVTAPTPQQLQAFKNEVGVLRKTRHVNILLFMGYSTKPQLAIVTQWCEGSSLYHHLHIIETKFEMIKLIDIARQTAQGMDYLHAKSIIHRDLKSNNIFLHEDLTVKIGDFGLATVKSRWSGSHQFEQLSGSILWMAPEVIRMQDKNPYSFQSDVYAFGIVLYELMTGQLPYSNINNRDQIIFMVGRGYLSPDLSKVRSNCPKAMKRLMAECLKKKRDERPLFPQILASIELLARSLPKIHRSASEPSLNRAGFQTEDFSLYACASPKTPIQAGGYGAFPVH
- run-description: Biochemical assay for B-Raf (coupled pyruvate kinase/lactate dehydrogenase)
- condition-set: Table 1, inhibition of biochemical activity; read-out: BRAF
pIC50: −log10 of the molar value.

Inquiry: Quickly give me recorded pIC50 for "CNC(=O)c1cc(-c2cc(-c3cc(NC(=O)c4cncc(C(F)(F)F)c4)ccc3C)ccn2)ccn1"
Reply text: > 7.00

Inquiry: Complete the entry with pIC50 for "CNC(=O)c1cc(-c2cc(-c3cc(NC(=O)c4ccc(C(F)(F)F)nc4)ccc3C)cc(N[C@H](C)CO)n2)ccn1"
Reply text: 6.30 to 7.00

Inquiry: Hello, please tell me recorded pIC50 for this one: "CNC(=O)c1cc(-c2cc(-c3cc(NC(=O)c4cncc(C(F)(F)F)c4)ccc3C)cc(C)n2)ccn1"
Reply text: 6.30 to 7.00

Inquiry: Specify pIC50 for "Cc1ccc(NC(=O)c2ccc(C(F)(F)F)nc2)cc1-c1ccnc(-c2ccnc(C(=O)NC3CC3)c2)c1" and stop.
Reply text: 5.00 to 6.00

Inquiry: Give a short answer stating reported pIC50 for "CNC(=O)c1cc(-c2cc(N)cc(-c3cc(NC(=O)c4cc(C(F)(F)F)cnn4)ccc3C)c2)ccn1" .
Reply text: 6.30 to 7.00

Others:
Inquiry: Identify pIC50 associated with the molecule "CNC(=O)c1cc(-c2cc(-c3cc(NC(=N)c4cc(C(F)(F)F)cnn4)ccc3C)ccn2)ccn1"
Reply text: 6.00 to 6.30

Inquiry: State its pIC50: "CNC(=O)c1cc(-c2cncc(-c3cc(NC(=O)c4cc(C(C)(F)F)cnn4)ccc3C)c2)ccn1"
Reply text: > 7.00

Inquiry: Please list pIC50 recorded for the molecule "CNC(=O)c1cc(-c2cc(-c3cc(NC(=O)c4cc(C5CC5)cnn4)ccc3C)nc(NCCO)n2)ccn1"
Reply text: > 7.00

Inquiry: Provide pIC50 value for the following molecule: "CNC(=O)c1cc(-c2cc(-c3cc(NC(=O)c4cc(C5CC5)cnn4)ccc3C)ccn2)ccn1"
Reply text: > 7.00

----------
- Test system: HCT-116 cells
- run-description: HCT-116 cell proliferation assay (resazurin)
- Format: cell-based
- condition-set: Homo sapiens; Table 2, inhibition of cell proliferation; read-out: HCT-116
- Procedure: HCT-116 cells (catalog #CCL-247) are obtained from the American Type Culture Collect (ATCC, Manassas, VA). […] Plates are read on a Synergy2 or equivalent reader (Biotek, Winooski, VT) using an excitation of 540 nm and an emission of 600 nm. Data is analyzed using Prism software (Graphpad, San Diego, CA) to calculate IC50 values.
pIC50: −log10 of the molar value.
Measured pIC50, listed per entry for reference.

Please review the following examples before continuing.
Inquiry: // Input: CNC(=O)c1cc(-c2cc(-c3cc(NC(=O)c4cc(C5CC5)cnn4)ccc3C)ccn2)ccn1 [Example 26] . Output its pIC50 only.
Reply text: 6.30 to 7.00

Inquiry: Complete the entry with pIC50 for CNC(=O)c1cc(-c2nc(N[C@H](C)CO)cc(-c3cc(NC(=O)c4cc(C(F)(F)F)cnn4)ccc3C)n2)ccn1 [Example 28]
Reply text: 5.00 to 6.00

Inquiry: Kindly indicate its recorded pIC50. Item: CNC(=O)c1cc(-c2cc(-c3cc(NC(=O)c4cc(C#N)cnn4)ccc3C)cc(N[C@H](C)CO)n2)ccn1 [Example 50]
Reply text: 6.30 to 7.00

Shift focus to the following entry.
Inquiry: Find the measured pIC50 of CNC(=O)c1cc(-c2nc(NCCO)cc(-c3cc(NC(=O)c4cc(C5CC5)cnn4)ccc3C)n2)ccn1 [Example 22] and report it.
Reply text: 5.00 to 6.00

----------
Measured IC50 values are reported for all entries that follow.
- tgt: B-Raf kinase (Homo sapiens)
- Construct: purchased Sigma
- run-description: Biochemical assay for B-Raf (coupled pyruvate kinase/lactate dehydrogenase)
- condition-set: Table 1, inhibition of biochemical activity; read-out: BRAF

Inquiry: Recall the reported IC50 of "CNC(=O)c1cc(-c2cc(-c3cc(NC(=O)c4cc(C5CC5)cnn4)ccc3C)cc(OCCO)n2)ccn1" on B-Raf kinase (Homo sapiens) and write it down.
Reply text: < 100 nM

Inquiry: Under B-Raf kinase (Homo sapiens): report IC50 of "CNC(=O)c1cc(-c2cc(-c3cc(NC(=O)c4cc(C(F)(F)F)cnn4)ccc3C)cc(OCCO)n2)ccn1" .
Reply text: < 100 nM

Inquiry: Provide the reported IC50 (system: B-Raf kinase (Homo sapiens)) for "CNC(=O)c1cc(-c2cc(-c3cc(NC(=O)c4cc(C(F)(F)F)cnn4)ccc3C)cc(NCCO)n2)ccn1"
Reply text: < 100 nM

Inquiry: Please respond with reported IC50 (system B-Raf kinase (Homo sapiens)) for "CNC(=O)c1cc(-c2cc(NCCO)nc(-c3cc(NC(=O)c4cc(C(F)(F)F)cnn4)ccc3C)n2)ccn1" .
Reply text: 100 to 500 nM

Inquiry: Report IC50 under test system B-Raf kinase (Homo sapiens) for "CNC(=O)c1cc(-c2cc(-c3cc(NC(=O)c4cc(C(N)=O)cnn4)ccc3C)cc(OCCO)n2)ccn1" .
Reply text: 100 to 500 nM

Inquiry: State IC50 (B-Raf kinase (Homo sapiens)) of "Cc1ccc(NC(=O)c2cc(C(F)(F)F)cnn2)cc1-c1ccnc(-c2ccnc(C(N)=O)c2)c1" .
Reply text: < 100 nM

Inquiry: Give reported IC50 for "CNC(=O)c1cc(-c2cc(-c3cc(NC(=O)c4cc(C(F)(F)F)cnn4)ccc3C)ccn2)ccn1" (B-Raf kinase (Homo sapiens))
Reply text: < 100 nM

Inquiry: Write down measured IC50 (B-Raf kinase (Homo sapiens)) for this compound. "CNC(=O)c1cc(-c2nc(N[C@H](C)CO)cc(-c3cc(NC(=O)c4cc(C(F)(F)F)cnn4)ccc3C)n2)ccn1"
Reply text: < 100 nM

----------
Recorded IC50, one value per entry.
- Tested on: HCT-116 cells
- run-description: HCT-116 cell proliferation assay (resazurin)
- Assay type: cell-based
- condition-set: Homo sapiens; Table 2, inhibition of cell proliferation; read-out: HCT-116

The examples below pair each entry with its known result.
Inquiry: Look up and state reported IC50 for "CNC(=O)c1cc(-c2cc(-c3cc(NC(=N)c4cc(C5CC5)cnn4)ccc3C)ccn2)ccn1"
Reply text: 1000 to 10000 nM

Inquiry: Specify reported IC50 for the molecule shown: "CNC(=O)c1cc(-c2cncc(-c3cc(NC(=O)c4cc(C(F)(F)F)cnn4)ccc3C)c2)ncn1"
Reply text: 1000 to 10000 nM

Inquiry: Given the molecule "CNC(=O)c1cc(-c2cc(-c3cc(NC(=O)c4cc(C(F)(F)F)cnn4)ccc3C)ccn2)ccn1" , write its reported IC50.
Reply text: 100 to 500 nM

Inquiry: Check the records and state IC50 for "CNC(=O)c1cc(-c2cc(-c3cc(NC(=O)c4cc(C(F)(F)F)cnn4)ccc3C)cc(NC)n2)ccn1"
Reply text: < 100 nM

Inquiry: Annotate the molecule "CNC(=O)c1cc(-c2cc(-c3cc(NC(=O)c4cc(C(F)(F)F)cnn4)ccc3C)nc(N[C@H](C)CO)n2)ccn1" with its measured IC50.
Reply text: 100 to 500 nM

Next:
Inquiry: # return recorded IC50 for entry "CNC(=O)c1cc(-c2cc(-c3cc(NC(=O)c4cc(C5CC5)cnn4)ccc3C)cc(OCCO)n2)ccn1"
Reply text: 100 to 500 nM

Inquiry: Provide IC50 value for the following molecule: "CCc1ccc(NC(=O)c2cc(C(F)(F)F)cnn2)cc1-c1ccnc(-c2ccnc(C(=O)NC)c2)c1"
Reply text: 1000 to 10000 nM
